# Tested on: HL-60(TB) leukemia
# test: NCI-60 one-dose screen, 48 h
# condition: 10 µM unless noted
# Description: Growth inhibition of the HL-60(TB) human tumor cell line is measured as a screen for anti-cancer activity. Cells are grown in 96 well plates and exposed to the test compound for 48 hours. Compounds are tested at a single concentration, which is 10^-5 M for most compounds. The reported endpoint is percent growth (GI% or GIPRCNT), where numbers from 0 - 100% represent growth inhibition, and numbers from -100% - 0 represent cell death. For example, a value of 40 represents 60% growth inhibition. […]
This is part of a sample that, as a whole, favours compounds with a hit. Of some 83,000 tested, about 20% had one in any assay. Calls of active or inactive are those of the source. Rule for the calls: active = growth percent below 10; inactive = the rest.
Classes used: Y (active), N (inactive)

>>> df
                                   compound              target  cat
0              Cc1ccc(S(=O)(=O)c2ccccc2)cc1  HL-60(TB) leukemia    N
1  COc1cc(Nc2ncc(F)c(Nc3ccc4c(n3)N(COP(=O)(O)O)C(=O)C(C)(C)O4)n2)cc(OC)c1OC  HL-60(TB) leukemia    N
2  CC(C)C1=C[C@@]23CC[C@@H]4[C@](C)(CCC[C@@]4(C)C(=O)N4CCCNCC4)[C@H]2C[C@@H]1[C@H]1C(=O)CCC(=O)[C@H]13  HL-60(TB) leukemia    N
3  CCN(CC)c1ccc(/C=C(\C#N)c2cc3ccccc3[nH]2)cc1  HL-60(TB) leukemia    N
4  COc1ccc(/C=C/C(=O)C(CC2CCC2)C(=O)/C=C/c2ccc(OC)c(OC)c2)cc1OC  HL-60(TB) leukemia    Y
5  N#CC1=C(N)Oc2c(ccc3ccccc23)C1c1ccccc1 (centres undefined)  HL-60(TB) leukemia    Y
6  CCOC(=O)C1=CCC(n2cc(C)c(=O)[nH]c2=O)O1 (centres undefined)  HL-60(TB) leukemia    N
7                     CC(=O)Nc1cscc1NC(C)=O  HL-60(TB) leukemia    N
8  C[C@]12CCc3nc(Nc4ccc(O)cc4)sc3C1=CC[C@@H]1[C@@H]2CC[C@]2(C)/C(=N/NC(N)=S)CC[C@@H]12  HL-60(TB) leukemia    Y

###

# Test system: M14 melanoma
# test: NCI-60 one-dose screen, 48 h (100 = growth as untreated, 0 = no growth, -100 = all killed)
# condition: 10 µM unless noted
# Method: Growth inhibition of the M14 human tumor cell line is measured as a screen for anti-cancer activity. Cells are grown in 96 well plates and exposed to the test compound for 48 hours. Compounds are tested at a single concentration, which is 10^-5 M for most compounds. The reported endpoint is percent growth (GI% or GIPRCNT), where numbers from 0 - 100% represent growth inhibition, and numbers from -100% - 0 represent cell death. For example, a value of 40 represents 60% growth inhibition. […]
Compounds without any hit were thinned out: in the full panel of roughly 83,000, 20% have a hit.
The following compounds are shown together with reported growth values.

compound	target	growth (%)
COC(=O)C(=[N+]=[N-])C(=O)OC	M14 melanoma	103
CC(/C=N/N=C(N)N)=N/N=C(N)N	M14 melanoma	92.4
O=C(CF)N(O)c1ccc(/C=C/c2ccccc2)cc1	M14 melanoma	43.2
CC1=C(SCCC(=O)OCC(=O)NCCC[Te]c2ccccc2)C(=O)c2ccccc2C1=O	M14 melanoma	-52.4
O=C1NC(=O)C(=Cc2cn(Cc3ccccc3)c3ccccc23)C(=O)N1	M14 melanoma	99.5
C/C(=C\c1cc(C(F)(F)F)n(-c2ccc(N)cc2)n1)[C@@H]1C[C@@H]2O[C@]2(C)CCC[C@H](C)[C@H](O)[C@@H](C)C(=O)C(C)(C)[C@@H](O)CC(=O)O1	M14 melanoma	-14.3
Oc1c(Br)cc(Br)cc1Br.[Cu+2]	M14 melanoma	103
CCOC(=O)/C=C(\C)Nc1ccc(N/C(C)=C/C(=O)OCC)c2c1Oc1ccccc1O2	M14 melanoma	107
CCCCOC(=O)c1ccccc1C(=O)O.CCCCOC(=O)c1ccccc1C(=O)O.[Cu+2]	M14 melanoma	101
COc1ccc(OC)c(/C=C(/C)[N+](=O)[O-])c1	M14 melanoma	47
C[CH2][Sn]([CH2]C)([CH2]C)[NH]S(=O)(=O)c1ccc(C)cc1	M14 melanoma	108
CC[C@]12C=CCN3CC[C@@]4(c5ccc(OC)cc5N(C)[C@H]4[C@@](O)(C(=O)OC)[C@@H]1OC(=O)CCCN1CCN(CCCC(=O)O[C@@H]4[C@]5(CC)C=CCN6CC[C@@]7(c8ccc(OC)cc8N(C)[C@H]7[C@@]4(O)C(=O)OC)[C@@H]65)CC1)[C@@H]32	M14 melanoma	-80.6
C[C@]12CC[C@@H]3c4ccc(OC(=O)Cc5ccc(N(CCCl)CCCl)cc5)cc4CC[C@H]3[C@@H]1CC[C@@H]2OC(=O)Cc1ccc(N(CCCl)CCCl)cc1	M14 melanoma	107
O=CN1N=C(c2ccccc2)CC1c1sc(N(CCCl)CCCl)nc1Cl (stereo not drawn)	M14 melanoma	103
C[CH2][Pb]([CH2]C)([CH2]C)[O]C(=O)c1ccc(N)cc1	M14 melanoma	60
COc1ccc(/C=C\c2cc(OC)c(OC)c(OC)c2)cc1N/C=C\C(=O)c1c[nH]c2ccccc12	M14 melanoma	11.3
COc1c(O)c2c3c(c1OC)-c1ccccc1CC3N(C)CC2 (stereo not drawn)	M14 melanoma	93.3
O=C1NC(=O)C(O)(C2(O)C(=O)NC(=O)NC2=O)C(=O)N1	M14 melanoma	105
COc1ccc(NP2(=O)OCC(C)(N)CO2)cc1 (stereo not drawn)	M14 melanoma	101
COc1ccc(/C=C(/C(=O)N2CCCC2)c2cc(OC)c(OC)c(OC)c2)cc1N	M14 melanoma	11.7
CCOc1ccc(C(O)CN(C)Cc2ccccc2)cc1Cl (stereo not drawn)	M14 melanoma	96
CO[C@@H]1[C@H](OC(=O)NC(=O)CCl)CC[C@]2(CO2)[C@H]1[C@@]1(C)O[C@@H]1CC=C(C)C	M14 melanoma	62
[Cl][Hg][n]1cnc2c(Cl)c(Cl)c(Cl)cc21	M14 melanoma	94.5
CC(=O)[O][Hg][c]1ccccc1	M14 melanoma	-90
NC(=O)OCC(CO)(c1ccccc1)c1ccccc1	M14 melanoma	99.5
O=S(=O)(O)c1ccc(-c2ccc([As](=O)(O)O)cc2)cc1	M14 melanoma	100
CCC(/C=C(C)/C=C/C(=O)c1c(O)c(-c2ccc(O)cc2)c[nH]c1=O)CO (stereo not drawn)	M14 melanoma	104
CCOC(=O)c1cnc(SCc2ccc(Cl)c(Cl)c2)nc1N1CC1	M14 melanoma	41.8
Oc1ccccc1OB(Oc1ccccc1O)N(CCCl)CCCl	M14 melanoma	85.2
O=C(N/N=C/c1ccc([N+](=O)[O-])o1)c1cc([N+](=O)[O-])cc([N+](=O)[O-])c1O	M14 melanoma	102
CCC[CH2][Sn]([CH2]CCC)([CH2]CCC)[O]C(=O)CC	M14 melanoma	-91.4
NC(=O)NC(=O)CI	M14 melanoma	88.7
CCC(C)[C@H]1O[C@]2(C=C[C@@H]1C)C[C@@H]1C[C@@H](C/C=C(\C)[C@@H](OC3C[C@H](OC)C(O[C@H]4C[C@H](OC)[C@@H](O)[C@H](C)O4)[C@H](C)O3)[C@@H](C)/C=C/C=C3\CO[C@@H]4[C@H](O)C(C)=C[C@@H](C(=O)O1)[C@]34O)O2 (stereo partly drawn)	M14 melanoma	-46.7
COC(=O)C[Se]C(=O)c1ccccc1OC(C)=O	M14 melanoma	49.3
O=C(CCF)c1ccc(O)cc1	M14 melanoma	106
CC(=O)O[C@H]1CCC2C3CCC4=C/C(=N/O)CCC4(C)C3CCC21C (stereo partly drawn)	M14 melanoma	79.9
CC(C)(C)[Si](C)(C)OC1[C@@H](O[Si](C)(C)C(C)(C)C)[C@@H](CNC(=O)NC(=O)CF)O[C@H]1n1cnc2c(NC(=O)Nc3ccccc3)ncnc21 (stereo partly drawn)	M14 melanoma	73.2
C#CC1(O)CCC2(C)C(CCC3C4CCC(=O)C4(C)CCC32)C1 (stereo not drawn)	M14 melanoma	102

From: PubChem BioAssay (NCI)
